# credit: patent US20250188166A1

# Test System: T1, IL-18R on HEK-Blue IL18R reporter cells (UniProt Q13478 19-541; O95256 20-599)
# T1 sequence (looked up) 1: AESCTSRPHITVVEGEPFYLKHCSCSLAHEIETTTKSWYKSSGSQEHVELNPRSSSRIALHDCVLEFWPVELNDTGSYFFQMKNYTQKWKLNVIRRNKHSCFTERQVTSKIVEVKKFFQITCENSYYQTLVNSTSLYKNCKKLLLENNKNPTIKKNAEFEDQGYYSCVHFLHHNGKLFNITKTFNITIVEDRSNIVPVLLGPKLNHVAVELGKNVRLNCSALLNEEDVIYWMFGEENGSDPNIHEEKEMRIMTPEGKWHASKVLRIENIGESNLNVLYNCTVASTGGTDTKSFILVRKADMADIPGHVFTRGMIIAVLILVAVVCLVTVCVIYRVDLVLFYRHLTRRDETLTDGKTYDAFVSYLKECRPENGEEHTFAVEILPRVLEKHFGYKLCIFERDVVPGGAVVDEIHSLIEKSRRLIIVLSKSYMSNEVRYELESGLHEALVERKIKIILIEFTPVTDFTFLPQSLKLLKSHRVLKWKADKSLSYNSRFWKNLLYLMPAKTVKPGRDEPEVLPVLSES
# T1 sequence (looked up) 2: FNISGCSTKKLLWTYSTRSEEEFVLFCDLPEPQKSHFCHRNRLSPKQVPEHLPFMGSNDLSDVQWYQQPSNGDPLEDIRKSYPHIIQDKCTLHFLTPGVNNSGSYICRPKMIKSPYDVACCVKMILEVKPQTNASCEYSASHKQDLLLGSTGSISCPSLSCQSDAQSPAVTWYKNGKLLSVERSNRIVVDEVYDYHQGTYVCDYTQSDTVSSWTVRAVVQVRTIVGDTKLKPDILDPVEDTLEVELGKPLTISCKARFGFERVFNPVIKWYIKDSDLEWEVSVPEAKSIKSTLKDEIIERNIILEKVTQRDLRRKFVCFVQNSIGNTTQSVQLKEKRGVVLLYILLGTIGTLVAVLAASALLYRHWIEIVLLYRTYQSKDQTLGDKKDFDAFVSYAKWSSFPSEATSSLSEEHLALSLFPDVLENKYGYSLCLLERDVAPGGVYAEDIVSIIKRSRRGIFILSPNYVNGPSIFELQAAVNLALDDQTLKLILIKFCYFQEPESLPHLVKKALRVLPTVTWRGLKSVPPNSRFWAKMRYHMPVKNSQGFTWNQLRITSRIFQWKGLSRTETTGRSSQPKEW
# Measurement Notes: cell-based or functional assay
Readout: EC50, HEK-Blue IL18R SEAP reporter

IL-18 polypeptide C182 (ligand) YFGKLKSKLSIIRNLNDQVLFIDQGNRPLFEDMTDSDARDNAPRTIFIISMYADSQPRGMAVAISVKCEKISTLSAENKIISFKEMNPPDNIKDTKSDIIFFQRSVPGHDNKMQFESSSYEGYFLAAEKERDLFKLILKKEDELGDRSIMFTYQNED : 0.08 pM
IL-18 polypeptide C140 (SEQ ID NO: 72) (ligand) GGGGYFGKLKSKLSIIRNLNDQVLFIDQGNRPLFEDMTDSDARDNAPRTIFIISMYADSQPRGMAVAISVKCEKISTLSAENKIISFKEMNPPDNIKDTKSDIIFFQRSVPGHDNKMQFESSSYEGYFLAAEKERDLFKLILKKEDELGDRSIMFTVQNED : 2.5 pM
IL-18 polypeptide C152 (ligand) YFGKLESKLSIIRNLNDQVLFIDQGNRPLFEDMTDADARDNAPRTIFIISMYADSQPRGMAVTISVKCEKISTLSAENKIISFKEMNPPDNIKDTKSDIIFFQRSVPGHDNKMQFESSSYEGYFLAAEKERDLFKLILKKEDELGDRSIMFTVQNED : 0.25 pM
